# studySystem: Free fatty acid receptor 1 (Homo sapiens)
# Sequence (O14842 whole entry): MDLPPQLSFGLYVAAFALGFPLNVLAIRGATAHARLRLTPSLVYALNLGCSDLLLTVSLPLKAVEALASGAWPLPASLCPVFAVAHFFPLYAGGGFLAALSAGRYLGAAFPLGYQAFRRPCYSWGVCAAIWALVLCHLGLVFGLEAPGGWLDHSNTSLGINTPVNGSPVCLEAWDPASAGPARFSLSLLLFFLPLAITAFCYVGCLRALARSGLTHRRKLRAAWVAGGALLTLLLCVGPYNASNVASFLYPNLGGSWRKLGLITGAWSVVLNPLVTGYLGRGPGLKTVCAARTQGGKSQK
# runDescription: Agonist activity at human GPR40 expressed in CHO-A12 cells assessed as increase in intracellular calcium flux measured for 100 secs by FLIPR assay
# Format: functional, cell-based
Consider the following compounds; for each one, report its pEC50.
Numbers only, as −log10 of the molar value.

Cc1cc(OCc2ccccc2)ccc1Oc1ccc(N2C[C@@H](C(F)(F)F)C[C@H]2CC(=O)O)cc1 : 6.92

Suppose we examine the compound O=C(O)C1CC(=O)N(c2ccc(OCc3ccc(Cl)cc3Cl)cc2)C1 (centres undefined) ; what pEC50 value has been reported?
5.30

###

Consider the following molecules; for each one, report its pEC50.
# studySystem: Free fatty acid receptor 1 (Mus musculus, UniProt Q76JU9)
# Sequence (Q76JU9 whole entry): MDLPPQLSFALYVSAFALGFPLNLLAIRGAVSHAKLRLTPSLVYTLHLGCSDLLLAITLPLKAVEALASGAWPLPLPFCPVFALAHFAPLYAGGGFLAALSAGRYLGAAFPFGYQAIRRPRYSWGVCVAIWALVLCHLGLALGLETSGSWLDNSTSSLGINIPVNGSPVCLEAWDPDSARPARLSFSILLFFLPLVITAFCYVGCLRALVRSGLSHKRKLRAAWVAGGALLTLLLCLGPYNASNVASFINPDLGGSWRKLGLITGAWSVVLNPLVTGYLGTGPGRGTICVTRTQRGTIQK
# runDescription: Agonist activity at mouse GPR40 expressed in CHO-A12 cells assessed as increase in intracellular calcium flux measured for 100 secs by FLIPR assay
# Type: functional, cell-based
Answers are plain numbers, as −log10 of the molar value.

O=C(O)C[C@@H]1C[C@H](C(F)(F)F)CN1c1ccc(Oc2ccccc2OC(F)(F)F)cc1 : 6.13

Now turn to the next molecule.
Suppose we examine the molecule O=C(O)C[C@@H]1CCN1c1ccc(OCc2ccc(Cl)cc2Cl)cc1 ; what pEC50 value has been reported?
6.36

###

# studySystem: PPARgamma (Homo sapiens, UniProt P37231)
# Sequence (P37231 whole entry): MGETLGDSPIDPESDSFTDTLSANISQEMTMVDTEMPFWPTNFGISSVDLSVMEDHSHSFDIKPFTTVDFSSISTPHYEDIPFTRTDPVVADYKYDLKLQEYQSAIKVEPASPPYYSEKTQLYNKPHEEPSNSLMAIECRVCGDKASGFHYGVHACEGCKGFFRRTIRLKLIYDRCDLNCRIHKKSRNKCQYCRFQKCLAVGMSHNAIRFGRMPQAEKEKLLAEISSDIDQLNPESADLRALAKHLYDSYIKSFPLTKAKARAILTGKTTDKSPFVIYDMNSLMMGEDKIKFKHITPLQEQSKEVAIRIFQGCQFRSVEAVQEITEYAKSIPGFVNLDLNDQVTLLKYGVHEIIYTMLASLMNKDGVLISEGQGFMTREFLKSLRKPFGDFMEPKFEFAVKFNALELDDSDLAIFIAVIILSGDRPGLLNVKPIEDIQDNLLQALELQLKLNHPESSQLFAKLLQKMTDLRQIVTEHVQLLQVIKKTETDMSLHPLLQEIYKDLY
# runDescription: Transactivation of human Gal4 fused PPARgamma-LBD expressed in HEK293 cells at 4.8 uM after 18 hrs by luciferase reporter gene assay relative to […]
# Assay type: cell-based
# appliedConditions: HEK293 cells expressing Gal4-fused human PPARgamma-LBD
Consider the following compounds; for each one, report its Emax at 18 h, 4.8 µM.

Reference set, count: 2
COc1ccc(F)c(-c2ccc(Cc3ccc(N4C[C@H](C(F)(F)F)C[C@@H]4CC(=O)O)cc3)c(C)c2)c1 : 40%
O=C(O)C[C@@H]1CCCN1c1ccc(OCc2ccc(Cl)cc2Cl)cc1 : 54%

Now turn to the next compound.
Suppose we examine the compound Cc1ccccc1Oc1ccc(N2CCC[C@H]2CC(=O)O)cc1 ; what Emax at 18 h, 4.8 µM value has been reported?
27%

###

# studySystem: UniProt Q76JU9
# runDescription: Intrinsic activity at mouse GPR40 expressed in CHO-A12 cells assessed as increase in intracellular calcium flux at 8.3 uM measured for 100 secs by FLIPR assay […]
# Assay type: functional, cell-based
parameter: Intrinsic activity (%)
Give bare numbers, in %.

Reference set, count: 3
COc1ccc(F)c(-c2ccc(Cc3ccc(N4C[C@@H](C(F)(F)F)C[C@@H]4CC(=O)O)cc3)c(C)c2)c1 : 210
COc1ccc(Oc2ccc(N3C[C@@H](C(F)(F)F)C[C@H]3CC(=O)O)cc2)c(C)c1 : 41
CO[C@H]1C[C@@H](CC(=O)O)N(c2ccc(Oc3ccccc3C)cc2)C1 : 76

Now turn to the next compound.
Suppose we examine the compound O=C(O)C[C@@H]1CCCN1c1ccc(Oc2ccccc2F)cc1 ; what Intrinsic activity value has been reported?
50

###

# runDescription: Fraction unbound in human plasma
# Type: ADME, cell-free
parameter: fraction unbound
Give bare numbers.

Suppose we examine the molecule COc1ccc(F)c(-c2ccc(Cc3ccc(N4C[C@H](C(F)(F)F)C[C@@H]4CC(=O)O)cc3)c(C)c2)c1 ; what fraction unbound value has been reported?
0.001

###

# studySystem: UniProt:Q76JU9
# runDescription: Agonist activity at GPR40 in mouse STC1 cells assessed as induction of GLP-1 secretion measured after 1 hr by HTRF assay
# Format: cell-based
Consider the following compounds; for each one, report its pEC50.
Answers are plain numbers, as −log10 of the molar value.

Please supply pEC50 for each of the following items, keeping them in order.
1. COc1ccc(F)c(-c2ccc(Cc3ccc(N4C[C@@H](C(F)(F)F)C[C@H]4CC(=O)O)cc3)c(C)c2)c1
2. COc1ccc(F)c(-c2ccc(Cc3ccc(N4C[C@H](C(F)(F)F)C[C@@H]4CC(=O)O)cc3)c(C)c2)c1

1: 5.49; 2: 6.48

###

# runDescription: Oral bioavailability in C57BL6 mouse at 0.5 mg/kg
# Format: ADME, organism-based
# appliedConditions: in vivo
parameter: bioavailability (%)
Answers are plain numbers, in %.

Suppose we examine the compound COc1ccc(F)c(-c2ccc(Cc3ccc(N4C[C@H](C(F)(F)F)C[C@@H]4CC(=O)O)cc3)c(C)c2)c1 ; what bioavailability value has been reported?
83

###

# studySystem: UniProt:Q76JU9
# runDescription: Intrinsic activity at mouse GPR40 expressed in CHO-A12 cells assessed as increase in intracellular calcium flux at 8.3 uM measured for 100 secs by FLIPR assay […]
# Type: functional, cell-based
Consider the following molecules; for each one, report its Intrinsic activity.

Reference set, count: 5
Cc1c(Cl)cccc1Oc1ccc(N2C[C@@H](C(F)(F)F)C[C@H]2CC(=O)O)cc1 : 50%
Cc1ccccc1Cc1ccc(N2CC[C@H](C)[C@H]2CC(=O)O)cc1 : 27%
O=C(O)C[C@@H]1CCN1c1ccc(OCc2ccc(Cl)cc2Cl)cc1 : 88%
Cc1ccccc1Oc1ccc(N2CCC[C@H]2CC(=O)O)cc1 : 69%
Cc1cc(OCc2ccccc2)ccc1Oc1ccc(N2C[C@@H](C(F)(F)F)C[C@H]2CC(=O)O)cc1 : 34%

Please supply Intrinsic activity for each of the following items, keeping them in order.
1. COc1ccc(F)c(-c2ccc(Cc3ccc(N4C[C@@H](C(F)(F)F)C[C@H]4CC(=O)O)cc3)c(C)c2)c1
2. O=C(O)C[C@@H]1C[C@H](C(F)(F)F)CN1c1ccc(Oc2ccccc2OC(F)(F)F)cc1
3. COc1ccc(F)c(-c2ccc(Cc3ccc(N4CCC[C@H]4CC(=O)O)cc3)c(C)c2)c1
4. Cc1ccccc1Cc1ccc(N2C[C@@H](C(F)(F)F)C[C@H]2CC(=O)O)cc1

46%
44%
160%
54%

###

# studySystem: Free fatty acid receptor 1 (Homo sapiens)
# runDescription: Agonist activity at human GPR40 expressed in CHO-A12 cells assessed as increase in intracellular calcium flux measured for 100 secs by FLIPR assay
# Format: functional, cell-based
parameter: pEC50
Numbers only, as −log10 of the molar value.

Please supply pEC50 for each of the following items, keeping them in order.
1. O=C(O)C[C@@H]1CCCN1c1ccc(Oc2ccc(Cl)cc2)cc1
2. O=C(O)C[C@@H]1C[C@H](C(F)(F)F)CN1c1ccc(Oc2ccccc2OC(F)(F)F)cc1
3. Cc1ccccc1Cc1ccc(N2C[C@@H](C(F)(F)F)C[C@H]2CC(=O)O)cc1
4. O=C(O)CC1CCCCCN1c1ccc(OCc2ccc(Cl)cc2Cl)cc1 (single isomer, unassigned; enantiomer 2)
5. Cc1ccccc1Cc1ccc(N2C[C@@H](C)C[C@H]2CC(=O)O)cc1
6. O=C(O)C[C@@H]1CCCN1c1ccc(Oc2cccc(Cl)c2)cc1
7. O=C(O)C[C@@H]1C[C@H](C(F)(F)F)CN1c1ccc(Oc2ccccc2C(F)(F)F)cc1
8. COc1ccc(F)c(-c2ccc(Cc3ccc(N4C[C@H](C(F)(F)F)C[C@H]4CC(=O)O)cc3)c(C)c2)c1

1. 6.54
2. 6.77
3. 7.17
4. 4.96
5. 6.85
6. 6.17
7. 6.51
8. 5.77

Please supply pEC50 for each of the following items, keeping them in order.
1. Cc1ccccc1Cc1ccc(N2CCC[C@H]2CC(=O)O)cc1
2. O=C(O)C[C@H]1CCCN1c1ccc(OCc2ccc(Cl)cc2Cl)cc1

[6.82, 6.06]

Please supply pEC50 for each of the following items, keeping them in order.
1. O=C(O)C[C@@H]1CCCN1c1ccc(Oc2ccccc2F)cc1
2. O=C(O)C[C@H]1CCN1c1ccc(OCc2ccc(Cl)cc2Cl)cc1
3. CCOc1ccccc1Oc1ccc(N2CCC[C@H]2CC(=O)O)cc1
4. O=C(O)C[C@@H]1CCCN1c1ccc(Oc2ccccc2)cc1

1: 6.82; 2: 4.89; 3: 5.77; 4: 6.25

Please supply pEC50 for each of the following items, keeping them in order.
1. COc1ccc(F)c(-c2ccc(Cc3ccc(N4C[C@@H](C(F)(F)F)C[C@@H]4CC(=O)O)cc3)c(C)c2)c1
2. Cc1ccccc1C(=O)c1ccc(N2CCC[C@H]2CC(=O)O)cc1
3. Cc1ccccc1Oc1ccc(N2CCC[C@H]2CC(=O)O)cc1
4. Cc1ccccc1COc1ccc(N2CCC[C@H]2CC(=O)O)cc1
5. COc1ccc(F)c(-c2ccc(Cc3ccc(N4C[C@H](C(F)(F)F)C[C@@H]4CC(=O)O)cc3)c(C)c2)c1

6.82
5.34
7.13
6.72
6.96
